Reference source for all entries: ChEMBL document CHEMBL4219082

# assay name: Selectivity index, ratio of CC50 for human HepG2.2.15 cells to EC50 for HBV infected in human HepG2.2.15 cells
# Format: toxicity, cell-based
# condition notes: read-out: Ratio CC50/EC50
measure name: selectivity ratio
Response field accepts a number only; no unit should be typed.

query: Find the measured selectivity ratio of Cc1cc(C)cc(Cc2nc(SCc3ccc(C#N)cc3)[nH]c(=O)c2I)c1 and report it.
result: 6.1

query: Find the measured selectivity ratio of CC(=O)c1ccc(CSc2nc(Cc3cc(C)cc(C)c3)c(I)c(=O)[nH]2)cc1 and report it.
result: 6.4

query: Find the measured selectivity ratio of COC(=O)c1ccc(CSc2nc(Cc3cc(C)cc(C)c3)c(I)c(=O)[nH]2)cc1 and report it.
result: 5

query: Find the measured selectivity ratio of Cc1cc(C)cc(Cc2nc(SCCOc3ccc([N+](=O)[O-])cc3)[nH]c(=O)c2I)c1 and report it.
result: 14

query: Find the measured selectivity ratio of Cc1cc(C)cc(Cc2nc(SCCc3ccc([N+](=O)[O-])cc3)[nH]c(=O)c2I)c1 and report it.
result: 6.8

query: Find the measured selectivity ratio of O=c1[nH]c(SCc2ccc([N+](=O)[O-])cc2)nc(Cc2ccccc2)c1I and report it.
result: 7

query: Find the measured selectivity ratio of Cc1cc(C)cc(Cc2nc(SCc3ccc([N+](=O)[O-])cc3)[nH]c(=O)c2I)c1 and report it.
result: 5.9

====

# assay name: Cytotoxicity against human HepG2.2.15 cells […] by MTT assay
# Format: cell-based, HepG2 2.2.15
measure name: CC50 (µM)
Numbers only here, please. The scale is µM.

query: Find the measured CC50 of CC(=O)c1ccc(CSc2nc(Cc3cc(C)cc(C)c3)c(I)c(=O)[nH]2)cc1 and report it.
result: 78.3

query: Find the measured CC50 of Cc1cc(C)cc(Cc2nc(SCCOc3ccc([N+](=O)[O-])cc3)[nH]c(=O)c2I)c1 and report it.
result: 96.6

query: Find the measured CC50 of COC(=O)c1ccc(CSc2nc(Cc3cc(C)cc(C)c3)c(I)c(=O)[nH]2)cc1 and report it.
result: 64.8

query: Find the measured CC50 of O=c1[nH]c(SCc2ccc([N+](=O)[O-])cc2)nc(Cc2ccccc2)c1I and report it.
result: 52.7

query: Find the measured CC50 of Cc1cc(C)cc(Cc2nc(SCc3ccc(C#N)cc3)[nH]c(=O)c2I)c1 and report it.
result: 43.2

query: Find the measured CC50 of Cc1cc(C)cc(Cc2nc(SCCc3ccc([N+](=O)[O-])cc3)[nH]c(=O)c2I)c1 and report it.
result: 66.6

query: Find the measured CC50 of Cc1cc(C)cc(Cc2nc(SCc3ccc([N+](=O)[O-])cc3)[nH]c(=O)c2I)c1 and report it.
result: 39

====

Answer each item with its documented selectivity ratio.
# assay name: Selectivity index, ratio of CC50 for human HepG2.2.15 cells to EC50 for HBV infected in human HepG2.2.15 cells
# Format: toxicity, cell-based
# condition notes: read-out: Ratio CC50/EC50

query: Find the measured selectivity ratio of Nc1ccn([C@H]2CS[C@@H](CO)O2)c(=O)n1 and report it.
result: > 164

query: Find the measured selectivity ratio of O=c1[nH]c(SCc2ccc([N+](=O)[O-])cc2)nc(Cc2cc(F)cc(F)c2)c1I and report it.
result: > 16

query: Find the measured selectivity ratio of N#Cc1ccc(CSc2nc(C(=O)N3CCCc4ccccc43)c(I)c(=O)[nH]2)cc1 and report it.
result: > 62

query: Find the measured selectivity ratio of N#Cc1ccc(CSc2nc(C(=O)NCCCc3ccccc3)c(I)c(=O)[nH]2)cc1 and report it.
result: > 30

query: Find the measured selectivity ratio of CN1CCN(C(=O)c2nc(SCc3ccc(C#N)cc3)[nH]c(=O)c2I)CC1 and report it.
result: > 38
